Measured Percent Control of individual entries
system: PIK3CA(E542K); conditions: Compound Concentration (nM):1000;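 further: KINOMEscan scanMAX binding as percent activity remaining versus control; lower means stronger binding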
Test readout: Percent Control (%)

>>> df
                                   molecule  experimental_system  value_units  readout_value
0  Cl.O=C(Nc1ccc(Oc2ccc3[nH]c(NC(=O)c4ccccc4)nc3c2)cc1)Nc1cc(C(F)(F)F)ccc1F [GW709042A]        PIK3CA(E542K)            %            100
1  Nc1ncnc2occ(-c3ccc(NC(=O)Nc4cc(C(F)(F)F)ccc4F)cc3)c12 [GW770249X]        PIK3CA(E542K)            %            100
2  CN(C)CCNC(=O)Nc1ccc(N(C)c2ccnc(Nc3ccc(CS(C)(=O)=O)cc3)n2)cc1.Cl [GW830900A]        PIK3CA(E542K)            %             84
3  CN1CCN(C(=O)c2ccc(NC(=O)Nc3ccc(N(C)c4ccnc(Nc5ccc(CS(C)(=O)=O)cc5)n4)cc3)cc2)CC1.Cl [GW830263A]        PIK3CA(E542K)            %             98
